B1: PhoQ; a variant is named by its letters at X, in order, P23837 (parent)
chain: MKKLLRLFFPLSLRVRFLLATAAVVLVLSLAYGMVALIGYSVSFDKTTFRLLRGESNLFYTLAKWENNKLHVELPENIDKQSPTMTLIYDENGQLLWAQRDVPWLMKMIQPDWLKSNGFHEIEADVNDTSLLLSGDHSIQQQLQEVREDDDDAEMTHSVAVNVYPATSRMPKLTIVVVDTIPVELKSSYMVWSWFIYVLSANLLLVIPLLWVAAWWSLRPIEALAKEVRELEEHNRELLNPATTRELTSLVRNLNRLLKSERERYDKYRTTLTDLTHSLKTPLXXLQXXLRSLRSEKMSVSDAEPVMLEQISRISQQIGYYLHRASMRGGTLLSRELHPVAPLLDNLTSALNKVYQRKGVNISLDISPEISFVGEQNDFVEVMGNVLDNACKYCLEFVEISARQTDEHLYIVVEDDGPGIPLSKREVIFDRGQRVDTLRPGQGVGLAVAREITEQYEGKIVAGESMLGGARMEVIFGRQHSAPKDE

variants of: B1; test: enrichment ratio after two sorts for PhoP signalling (ratio (wild type AVST 3.29)); higher = more functional; conditions: with PhoP (E. coli)
The full ranking holds about 140,000 sequences; the median of “enrichment ratio after two sorts for PhoP signalling” is about 0, and the highest 2% start at about 11. Many of the other results were omitted from the sample, so the highest values are more common in it than they were.
test.readout: enrichment ratio
Answers are plain numbers.

Example cases with answers are listed next.
{"sequence.change": "SRGF", "test.readout": "enrichment ratio", "measured.result": 0.392}
{"sequence.change": "FQLM", "test.readout": "enrichment ratio", "measured.result": 1.74}
{"sequence.change": "GMCM", "test.readout": "enrichment ratio", "measured.result": 22}
{"sequence.change": "TRCM", "test.readout": "enrichment ratio", "measured.result": 12.4}
{"sequence.change": "HSLM", "test.readout": "enrichment ratio", "measured.result": 22.1}

Hi, could you look up enrichment ratio for each item in my list?
1. STMF
2. MTAI
3. SEMF
4. SEGF

Data returned:
[11.1, 17.8, 20.6, 12.8]
